# assay protocol: Pharmacokinetic study in the rat
# Assay type: in vivo
# condition context: plasma, male Sprague-Dawley rats, PO 5 mg/kg vs IV 2.5 mg/kg, dose-normalized AUC ratio, read-out: oral bioavailability F(%)
quantity: bioavailability (%)

| molecule | quantitative result |
| --- | --- |
| CC(C)n1c(=O)n(C(=O)N[C@H]2C[C@H]3CC[C@@H](C2)N3CCCOC(=O)N2CCN(C(=O)C3CCCO3)CC2)c2ccccc21 (stereo partly shown) | 55 |

----------
# assay protocol: Pharmacokinetic study in the rat
# Assay type: in vivo
# condition context: male Sprague-Dawley rats, blood plasma, dosing IV 2.5 mg/kg or PO 5 mg/kg
quantity: AUC(0-t) (ng·h/mL)

| molecule | quantity | quantitative result |
| --- | --- | --- |
| CC(C)n1c(=O)n(C(=O)N[C@H]2C[C@H]3CC[C@@H](C2)N3CCCOC(=O)N2CCN(C(=O)C3CCCO3)CC2)c2ccccc21 (stereo partly shown) [Example 1] | AUC(0-t) | 970 |
